assay: Stability of salt forms under accelerated conditions of heat and humidity; type: physicochemical; conditions: 80° C./80% RH, 7 D
Consider the following molecules; for each one, report its Assay (%).
Answers are plain numbers, in %.

Below are worked cases with known answers.
CC[C@H](C(=O)N1CCCC[C@H]1C(=O)O[C@H](CCc1ccc(OC)c(OC)c1)c1cccc(OCCN(C)CCN(C)CCOc2cccc([C@@H](CCc3ccc(OC)c(OC)c3)OC(=O)[C@@H]3CCCCN3C(=O)[C@@H](CC)c3cc(OC)c(OC)c(OC)c3)c2)c1)c1cc(OC)c(OC)c(OC)c1.O=C(O)/C=C/C(=O)O [Fumarate]: 87.5
CC[C@H](C(=O)N1CCCC[C@H]1C(=O)O[C@H](CCc1ccc(OC)c(OC)c1)c1cccc(OCCN(C)CCN(C)CCOc2cccc([C@@H](CCc3ccc(OC)c(OC)c3)OC(=O)[C@@H]3CCCCN3C(=O)[C@@H](CC)c3cc(OC)c(OC)c(OC)c3)c2)c1)c1cc(OC)c(OC)c(OC)c1.O=S(=O)(O)c1ccccc1: 91.2
CC[C@H](C(=O)N1CCCC[C@H]1C(=O)O[C@H](CCc1ccc(OC)c(OC)c1)c1cccc(OCCN(C)CCN(C)CCOc2cccc([C@@H](CCc3ccc(OC)c(OC)c3)OC(=O)[C@@H]3CCCCN3C(=O)[C@@H](CC)c3cc(OC)c(OC)c(OC)c3)c2)c1)c1cc(OC)c(OC)c(OC)c1.Cl [Compound A.2]: 95.6
CC[C@H](C(=O)N1CCCC[C@H]1C(=O)O[C@H](CCc1ccc(OC)c(OC)c1)c1cccc(OCCN(C)CCN(C)CCOc2cccc([C@@H](CCc3ccc(OC)c(OC)c3)OC(=O)[C@@H]3CCCCN3C(=O)[C@@H](CC)c3cc(OC)c(OC)c(OC)c3)c2)c1)c1cc(OC)c(OC)c(OC)c1.O=P(O)(O)O [Compound A.1]: 85.2

Proceed to the following item.
Q: State its Assay (%) for this molecule: CC[C@H](C(=O)N1CCCC[C@H]1C(=O)O[C@H](CCc1ccc(OC)c(OC)c1)c1cccc(OCCN(C)CCN(C)CCOc2cccc([C@@H](CCc3ccc(OC)c(OC)c3)OC(=O)[C@@H]3CCCCN3C(=O)[C@@H](CC)c3cc(OC)c(OC)c(OC)c3)c2)c1)c1cc(OC)c(OC)c(OC)c1.O=S(=O)(O)O [Sulphate]
A: 88.2

---

assay: Stability of salt forms under accelerated conditions of heat and humidity; assay type: physicochemical; details: 25° C./60% RH, 7 D
READOUT TYPE: Assay (%)
Give bare numbers, in %.

Below are worked cases with known answers.
CC[C@H](C(=O)N1CCCC[C@H]1C(=O)O[C@H](CCc1ccc(OC)c(OC)c1)c1cccc(OCCN(C)CCN(C)CCOc2cccc([C@@H](CCc3ccc(OC)c(OC)c3)OC(=O)[C@@H]3CCCCN3C(=O)[C@@H](CC)c3cc(OC)c(OC)c(OC)c3)c2)c1)c1cc(OC)c(OC)c(OC)c1.O=S(=O)(O)c1ccccc1: 92.2
CC[C@H](C(=O)N1CCCC[C@H]1C(=O)O[C@H](CCc1ccc(OC)c(OC)c1)c1cccc(OCCN(C)CCN(C)CCOc2cccc([C@@H](CCc3ccc(OC)c(OC)c3)OC(=O)[C@@H]3CCCCN3C(=O)[C@@H](CC)c3cc(OC)c(OC)c(OC)c3)c2)c1)c1cc(OC)c(OC)c(OC)c1.O=C(O)/C=C/C(=O)O [Fumarate]: 97.5

Proceed to the following item.
Q: State its Assay (%) for this molecule: CC[C@H](C(=O)N1CCCC[C@H]1C(=O)O[C@H](CCc1ccc(OC)c(OC)c1)c1cccc(OCCN(C)CCN(C)CCOc2cccc([C@@H](CCc3ccc(OC)c(OC)c3)OC(=O)[C@@H]3CCCCN3C(=O)[C@@H](CC)c3cc(OC)c(OC)c(OC)c3)c2)c1)c1cc(OC)c(OC)c(OC)c1.O=S(=O)(O)O [Sulphate]
A: 96.2
